TARGET OR SYSTEM: Rap guanine nucleotide exchange factor 4 (Homo sapiens)
PROTOCOL DESCRIPTION: Confirmatory qHTS for antagonist of cAMP-regulated guanine nucleotide exchange factor 4 (EPAC2) (AID 1645885); further: nearly all actives have a fitted effect of over 25% in size
SETUP CONDITIONS: EPAC2 Rap1B-BODIPY-GDP exchange fluorescence, biochemical; series mostly up to 12.7 µM
Inconclusive results are not listed. Active and inactive are the calls of the source. The call rests on the fitted dose curve; in most records, active means well fitted inhibition curve with a large enough effect; inconclusive means small, poorly fitted or top-dose-only effect; inactive means no such curve, though single readings can be large or run the other way.
Classes used: active, inactive

COMPOUND: COc1cccc(C2CC(c3cccs3)=NN2C(=O)c2ccco2)c1O (centres undefined)
CAT: inactive
--
COMPOUND: CCCCC(CC)COC1(c2ccccc2)OC(=O)c2ccccc21 (centres undefined)
CAT: inactive
--
COMPOUND: CCOc1cc(CNCCSc2nnnn2C)ccc1OCc1ccc(Cl)cc1Cl
CAT: active
--
COMPOUND: N=C1/C(=C\c2coc3ccccc3c2=O)C(=O)N=C2SC=CN12
CAT: inactive

* * *

PROTOCOL DESCRIPTION: qHTS profiling for inhibitors of Plasmodium falciparum proliferation (AID 504749);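 further: 0% = DMSO vehicle and full inhibition = artemisinin control; nearly all actives have a fitted effect of over 60% in size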
SETUP CONDITIONS: P. falciparum in erythrocytes, SYBR Green DNA, 72 h; at 28.7 µM (top of the series); parasite line A
Inconclusive results are not listed.
The entries below are paired with their reported activity, negative = inhibition.
QUANTITY KIND: activity, negative = inhibition (%)

MOLECULE: NC1=NC(S)C2N=CN=C2N1 (stereo not given)
RESULT VALUE: 3.76
//
MOLECULE: CC1CCC(C(C)C)C(OC(=O)c2ccccc2O)C1 (stereo not given)
RESULT VALUE: -1.98
//
MOLECULE: CC(=O)OC1CC2CCC1(C)C2(C)C (stereo not given)
RESULT VALUE: 6.76
//
MOLECULE: CCC(=O)O[C@@H](OP(=O)(CCCCc1ccccc1)CC(=O)N1C[C@H](C2CCCCC2)C[C@H]1C(=O)O)C(C)C (stereo not given in full)
RESULT VALUE: -6.06
//
MOLECULE: CN(C)CCCCCCN(C)C
RESULT VALUE: 13.6

* * *

TARGET OR SYSTEM: Rap guanine nucleotide exchange factor 4 (Homo sapiens) (UniProt Q8WZA2)
Sequence (Q8WZA2 whole entry, looked up): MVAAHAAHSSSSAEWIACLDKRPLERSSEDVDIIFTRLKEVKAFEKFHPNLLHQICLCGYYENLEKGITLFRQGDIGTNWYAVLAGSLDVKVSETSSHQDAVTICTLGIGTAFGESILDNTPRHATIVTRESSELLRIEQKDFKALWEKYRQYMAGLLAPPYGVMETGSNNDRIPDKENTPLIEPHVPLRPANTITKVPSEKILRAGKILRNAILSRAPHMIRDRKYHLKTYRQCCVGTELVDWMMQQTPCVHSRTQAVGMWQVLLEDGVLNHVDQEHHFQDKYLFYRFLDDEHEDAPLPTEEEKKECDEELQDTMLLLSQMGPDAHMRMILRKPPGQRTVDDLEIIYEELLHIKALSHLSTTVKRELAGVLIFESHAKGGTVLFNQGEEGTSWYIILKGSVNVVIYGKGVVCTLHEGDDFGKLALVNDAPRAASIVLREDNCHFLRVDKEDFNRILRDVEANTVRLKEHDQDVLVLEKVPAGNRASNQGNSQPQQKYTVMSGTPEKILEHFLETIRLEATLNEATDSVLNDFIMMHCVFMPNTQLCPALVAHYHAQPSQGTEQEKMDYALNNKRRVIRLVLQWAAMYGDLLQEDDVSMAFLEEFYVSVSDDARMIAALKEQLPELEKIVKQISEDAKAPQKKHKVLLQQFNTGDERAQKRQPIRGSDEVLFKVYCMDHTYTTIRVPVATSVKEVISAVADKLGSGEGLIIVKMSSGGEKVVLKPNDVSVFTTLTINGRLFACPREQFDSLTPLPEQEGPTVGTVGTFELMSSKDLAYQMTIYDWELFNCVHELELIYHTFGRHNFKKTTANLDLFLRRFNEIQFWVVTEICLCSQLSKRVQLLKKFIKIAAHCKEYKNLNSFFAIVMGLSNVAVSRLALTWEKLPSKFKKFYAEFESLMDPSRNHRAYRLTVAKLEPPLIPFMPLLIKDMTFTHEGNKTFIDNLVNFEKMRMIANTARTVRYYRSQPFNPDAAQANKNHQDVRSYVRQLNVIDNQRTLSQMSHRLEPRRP
PROTOCOL DESCRIPTION: Confirmatory qHTS for antagonist of cAMP-regulated guanine nucleotide exchange factor 4 (EPAC2) (AID 1645885); further: nearly all actives have a fitted effect of over 25% in size
SETUP CONDITIONS: EPAC2 Rap1B-BODIPY-GDP exchange fluorescence, biochemical; series mostly up to 12.7 µM
Results filed as inconclusive are left out. Active and inactive are the calls of the source. The call rests on the fitted dose curve; in most records, active means well fitted inhibition curve with a large enough effect; inconclusive means small, poorly fitted or top-dose-only effect; inactive means no such curve, though single readings can be large or run the other way.
Classes used: 1 = active, -1 = inactive

COMPOUND: CNC(=O)COC(=O)c1cc(-c2ccco2)nc2ccccc12
CAT: -1

COMPOUND: COc1ccc(CN(C)C(=O)CC(c2ccccc2)c2ccccc2)cc1
CAT: -1

COMPOUND: COc1ccc(O)c(/C=N/NC(=O)c2ccc(N3CCCC3=O)cc2)c1
CAT: -1

COMPOUND: Cc1cc(C)c(OCC(=O)N(Cc2ccco2)Cc2ccco2)c(C)c1
CAT: -1

COMPOUND: COc1ccc(CN(Cc2ccco2)C(=O)c2ccccc2F)cc1
CAT: -1

COMPOUND: O=C(NCc1ccco1)c1ccc(Cn2c(=S)[nH]c3ccccc3c2=O)cc1
CAT: 1

COMPOUND: O=C(c1ccc(O)c(Br)c1)c1cc(Br)ccc1O
CAT: -1

COMPOUND: COc1ccc2c(Cl)c(C(=O)N/N=C3\CCCC(=O)C3)sc2c1
CAT: 1

COMPOUND: CCC(C)[C@H]1COCCS(=O)(=O)N1Cc1ccc(Cl)cc1Cl (stereo not given in full)
CAT: -1

COMPOUND: COc1ccccc1CN(C)C(=O)C(c1ccccc1)c1ccccc1
CAT: -1

COMPOUND: CCc1ccc2c(c1)NC(=O)C2(C)Cc1ccc(F)cc1 (stereo not given)
CAT: -1

COMPOUND: CCn1c(=O)c(C(=O)Nc2ccccc2S(N)(=O)=O)c(O)c2ccccc21
CAT: -1

COMPOUND: COc1ccc(C(=O)Nc2ccc(NC(=O)c3cccs3)cc2)cc1OC
CAT: -1

COMPOUND: O=C1CCC([N+](=O)[O-])C(c2cccc3ccccc23)N1 (stereo not given)
CAT: -1

COMPOUND: O=C1/C(=C/c2ccco2)Oc2c1ccc(O)c2CN1CCCCC1
CAT: 1

COMPOUND: CC1=NN(c2ccc(C)c(C)c2)C(=O)C1C(c1cccc(O)c1)C1C(=O)N(c2ccc(C)c(C)c2)N=C1C (stereo not given)
CAT: -1

COMPOUND: CC(=O)c1sc2nc(CSc3nnnn3-c3ccccc3)[nH]c(=O)c2c1C
CAT: -1

COMPOUND: Nc1ncnc2c1nc(Sc1ccc(Cl)cc1)n2[C@@H]1O[C@@H]2COP(=O)(O)O[C@H]2[C@H]1O
CAT: 1

COMPOUND: COC(=O)c1c(SC)nc2ccccc2c1OCc1ccccc1Cl
CAT: -1

COMPOUND: COc1ccc(OC)c(C(=O)/C=C/c2ccccc2C(F)(F)F)c1
CAT: -1

COMPOUND: Fc1ccc(-c2nc3ccc(Br)cn3c2Cc2cccc(F)c2)cc1
CAT: -1

COMPOUND: COC(=O)c1ccc(Cn2nc(-c3cc(C)ccc3C)ccc2=O)cc1
CAT: -1

COMPOUND: CS(=O)(=O)c1ccc(C(=O)OCc2nnc(-c3ccccc3)o2)cc1[N+](=O)[O-]
CAT: -1

COMPOUND: COc1ccc(/C(N)=N/OC(=O)c2ccc(C)c([N+](=O)[O-])c2)cc1
CAT: -1

COMPOUND: CCN(C(=O)Cn1c(=O)oc2cc(Cl)ccc21)c1cccc(C(F)(F)F)c1
CAT: -1

COMPOUND: CCOc1cc(/C=C2\CCCc3c2nc2ccccc2c3C(=O)O)ccc1OC
CAT: -1

COMPOUND: CCOc1cc(/C=C2\SC(=Nc3ccc(CC)cc3)NC2=O)ccc1OCC(=O)O
CAT: -1

COMPOUND: COc1ccc(/C=C/C(=O)c2cccs2)c(OC)c1
CAT: -1

COMPOUND: O=C(N[C@H](Cc1ccc(Cl)cc1)C(=O)O)OCC1c2ccccc2-c2ccccc21
CAT: -1

COMPOUND: Cc1oc2ccc(O)c(CN(C)Cc3ccccc3)c2c1C(=O)Nc1cccc(C(F)(F)F)c1
CAT: -1

COMPOUND: COc1ccc(S(=O)(=O)/N=C2/NC(=O)/C(=C\c3cc(OC)c(OC)cc3[N+](=O)[O-])S2)cc1
CAT: -1

COMPOUND: CN1/C(=C\C=C2/SC(=S)N(CC(=O)O)C2=O)C(C)(C)c2ccccc21
CAT: -1

COMPOUND: Cc1noc(NS(=O)(=O)c2ccc(N/C=C\C(=O)c3cccc4ccccc34)cc2)c1C
CAT: -1

COMPOUND: O=C1NC[C@H](Cc2ccc(O)cc2)N(C[C@@H]2CCCN2C[C@H](Cc2ccc(O)cc2)N2C[C@H](Cc3ccccc3)N(CC3CCCCC3)C(=O)C2=O)C1=O
CAT: -1

COMPOUND: COC(=O)[C@@]1(C)CCC[C@@]2(C)c3ccc(O)c(C(C)C)c3CCC21 (stereo not given in full)
CAT: -1

// data source = PubChem BioAssay (NCATS)
